Each entry below lists one item and its recorded AUC(0-t) at 12 h value.
test: AUC (0 to 12 hrs) in Sprague-Dawley rat at 5 mg/kg, po; format: ADME, organism-based; set-up: time < 12 hr, dose 5 mg/kg, route oral; details: plasma

smi | endpoint_unit | AUC(0-t) at 12 h
CC(=O)N1CCC(C(=O)N(CCCN2CCN(Cc3ccc(F)cc3)CC2)c2ccc(C)c(Cl)c2)CC1.Cl | ng·h/mL | 587
CC(=O)N1CCC(C(=O)N(CCCN2CCC(Cc3ccc(C(N)=O)cc3)CC2)c2ccc(C)c(Cl)c2)CC1.Cl | ng·h/mL | 22.7

* * *

assay: Cytotoxicity against human CEMx174 5.25M7; conditions: CEMx174 5.25M7 cells

smi | CC50
CC(=O)N1CCC(C(=O)N(CCCN2CCC(CNC(=O)c3cnccn3)CC2)c2ccc(C)c(Cl)c2)CC1 | > 52.4 µM
CC(=O)N1CCC(C(=O)N(CCCN2CCN(Cc3ccccc3)CC2)c2ccc(C)c(Cl)c2)CC1 | 101 µM
CC(=O)N1CCC(C(=O)N(CCCN2CCN(C(=O)c3ccccc3)CC2)c2ccc(C)c(Cl)c2)CC1 | 97.8 µM
CC(=O)N1CCC(C(=O)N(CCCN2CCN(Cc3ccc(S(C)(=O)=O)cc3)CC2)c2ccc(C)c(Cl)c2)CC1 | > 49.3 µM

* * *

Each entry below lists one item and its recorded CC50 value.
assay: Cytotoxicity against human CEMx174 5.25M7; conditions: CEMx174 5.25M7 cells

smi | CC50
CC(=O)N1CCC(C(=O)N(CCCN2CCN(Cc3ccc(Cl)nc3)CC2)c2ccc(C)c(Cl)c2)CC1 | > 53.1 µM
CC(=O)N1CCC(C(=O)N(CCCN2CCN(Cc3cccnc3)CC2)c2ccc(C)c(Cl)c2)CC1 | > 56.7 µM
CC(=O)N1CCC(C(=O)N(CCCN2CCN(c3ccccn3)CC2)c2ccc(C)c(Cl)c2)CC1 | > 58.3 µM
CC(=O)N1CCC(C(=O)N(CCCN2CCN(Cc3cnc(Cl)s3)CC2)c2ccc(C)c(Cl)c2)CC1 | > 52.4 µM

* * *

assay: AUC (0 to 12 hrs) in Sprague-Dawley rat at 1 mg/kg, iv; type: ADME, organism-based; set-up: time < 12 hr, dose 1 mg/kg, route intravenous; conditions: plasma
quantity_name: AUC(0-t) at 12 h (ng·h/mL)

smi | test_result
CC(=O)N1CCC(C(=O)N(CCCN2CCN(Cc3ccc(F)cc3)CC2)c2ccc(C)c(Cl)c2)CC1.Cl | 209
CC(=O)N1CCC(C(=O)N(CCCN2CCC(Cc3ccc(C(N)=O)cc3)CC2)c2ccc(C)c(Cl)c2)CC1.Cl | 328

* * *

assay: Selectivity ratio of CC50 for human CEMx174 5.25M7 cells to IC50 for HIV1 Bal infected in CEMx174 5.25M7 cells; assay type: ADME, cell-based; details: read-out: Ratio CC50/IC50

smi | selectivity ratio
CC(=O)N1CCC(C(=O)N(CCCN2CCC(Oc3ccccc3)CC2)c2ccc(C)c(Cl)c2)CC1 | > 1080
CCN(Cc1ccccc1)C(=O)C1CCN(CCCN(C(=O)C2CCN(C(C)=O)CC2)c2ccc(C)c(Cl)c2)CC1 | 1400
CC(=O)N1CCC(C(=O)N(CCCN2CCN(Cc3ccc(S(C)(=O)=O)cc3)CC2)c2ccc(C)c(Cl)c2)CC1 | > 12100
CC(=O)N1CCC(C(=O)N(CCCN2CCC(CNc3cc(C)ccn3)CC2)c2ccc(C)c(Cl)c2)CC1 | 10
CC(=O)N1CCC(C(=O)N(CCCN2CCC(CNC(=O)c3cnccn3)CC2)c2ccc(C)c(Cl)c2)CC1 | > 2580
CC(=O)N1CCC(C(=O)N(CCCN2CCN(Cc3ccc(C#N)cc3)CC2)c2ccc(C)c(Cl)c2)CC1 | > 11100
CC(=O)N1CCC(C(=O)N(CCCN2CCN(c3ccccn3)CC2)c2ccc(C)c(Cl)c2)CC1 | > 1040
